molecular target: WNK3 (human) (UniProt Q9BYP7); assay: radiometric filter-binding kinase assay, Kinase HotSpot; conditions: compound 0.5 µM; ATP 10 µM
Sequence (Q9BYP7 whole entry, looked up): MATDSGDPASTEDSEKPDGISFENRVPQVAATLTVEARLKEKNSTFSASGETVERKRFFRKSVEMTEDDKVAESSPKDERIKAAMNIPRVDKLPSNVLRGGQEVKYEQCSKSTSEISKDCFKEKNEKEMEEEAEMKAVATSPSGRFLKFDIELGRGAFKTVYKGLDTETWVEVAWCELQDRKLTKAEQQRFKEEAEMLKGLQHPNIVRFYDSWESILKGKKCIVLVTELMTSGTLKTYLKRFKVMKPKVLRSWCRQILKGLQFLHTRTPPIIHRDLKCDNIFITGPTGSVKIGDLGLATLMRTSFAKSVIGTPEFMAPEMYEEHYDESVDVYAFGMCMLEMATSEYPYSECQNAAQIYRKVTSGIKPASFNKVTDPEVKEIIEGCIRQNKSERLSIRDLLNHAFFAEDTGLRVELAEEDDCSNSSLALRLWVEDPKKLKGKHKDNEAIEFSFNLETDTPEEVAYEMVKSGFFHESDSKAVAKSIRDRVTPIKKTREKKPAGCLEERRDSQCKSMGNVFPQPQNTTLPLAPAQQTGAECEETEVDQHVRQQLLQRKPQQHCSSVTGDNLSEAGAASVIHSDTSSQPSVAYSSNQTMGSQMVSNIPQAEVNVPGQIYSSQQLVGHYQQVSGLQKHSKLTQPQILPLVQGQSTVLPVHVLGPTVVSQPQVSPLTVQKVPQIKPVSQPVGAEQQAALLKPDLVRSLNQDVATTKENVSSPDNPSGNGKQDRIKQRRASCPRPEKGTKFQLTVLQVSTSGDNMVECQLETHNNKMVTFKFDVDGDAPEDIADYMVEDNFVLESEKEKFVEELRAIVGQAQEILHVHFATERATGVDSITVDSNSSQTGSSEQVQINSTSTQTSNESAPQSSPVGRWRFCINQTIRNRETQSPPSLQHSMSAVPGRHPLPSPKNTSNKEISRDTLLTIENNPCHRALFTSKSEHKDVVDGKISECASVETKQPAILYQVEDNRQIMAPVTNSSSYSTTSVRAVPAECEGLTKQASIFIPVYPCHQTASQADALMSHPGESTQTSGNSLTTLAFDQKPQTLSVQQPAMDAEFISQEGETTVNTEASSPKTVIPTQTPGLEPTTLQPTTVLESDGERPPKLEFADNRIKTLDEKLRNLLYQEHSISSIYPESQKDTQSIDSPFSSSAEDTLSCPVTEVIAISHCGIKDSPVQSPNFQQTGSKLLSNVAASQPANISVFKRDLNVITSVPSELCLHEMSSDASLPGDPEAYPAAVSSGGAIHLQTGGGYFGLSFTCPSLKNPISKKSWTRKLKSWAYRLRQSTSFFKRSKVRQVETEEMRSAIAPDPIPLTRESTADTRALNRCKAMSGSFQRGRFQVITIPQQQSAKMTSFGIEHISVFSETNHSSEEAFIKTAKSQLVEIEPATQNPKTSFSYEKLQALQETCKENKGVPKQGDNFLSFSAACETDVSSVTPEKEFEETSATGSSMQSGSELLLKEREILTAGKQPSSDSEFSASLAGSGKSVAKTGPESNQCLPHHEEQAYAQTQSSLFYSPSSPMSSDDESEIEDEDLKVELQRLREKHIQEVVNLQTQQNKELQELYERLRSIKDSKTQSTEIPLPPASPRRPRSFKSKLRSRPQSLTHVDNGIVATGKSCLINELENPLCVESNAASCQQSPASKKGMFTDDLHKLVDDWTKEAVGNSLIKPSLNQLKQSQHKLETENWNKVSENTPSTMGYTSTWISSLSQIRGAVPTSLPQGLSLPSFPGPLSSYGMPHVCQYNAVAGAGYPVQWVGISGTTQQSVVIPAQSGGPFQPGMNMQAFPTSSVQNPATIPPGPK
residual activity: recorded values
Numeric only. Scale: %

Recorded results for 5 compounds are shown here.
>>> recorded_number("CC[n+]1c(/C=C/N(C)c2ccccc2)n(-c2ccccc2)c2ccc(-c3nc4ccccc4s3)cc21")
85.9
>>> recorded_number("CCOC(=O)c1c(C)[nH]c(/C=C2\\C(=O)Nc3ccccc32)c1C")
104
>>> recorded_number("Nc1ccc2ncnc(NCCc3ccc(Oc4ccccc4)cc3)c2c1")
114
>>> recorded_number("CCN(CC)CCNC(=O)c1c(C)[nH]c(/C=C2\\C(=O)Nc3ccc(F)cc32)c1C")
94.3
>>> recorded_number("Nc1cccc(-c2cc3c(Oc4cccc(O)c4)ncnc3[nH]2)c1")
88.5

Request: Tell me residual activity reported for O=c1cc(N2CCOCC2)oc2c1ccc1ccccc12
Result: 97.5

Request: Tell me residual activity reported for O=C1Nc2ccc(Cl)cc2/C1=C/c1cc(Cl)c(O)c(Cl)c1
Result: 90.7

Request: Tell me residual activity reported for CC#CC(=O)Nc1cc2c(Nc3ccc(F)c(Cl)c3)ncnc2cn1
Result: 95.1

Request: Tell me residual activity reported for Nc1ncnc2c1c(-c1ccc(Oc3ccccc3)cc1)cn2C1CCCC1
Result: 85.2

Request: Tell me residual activity reported for O=S(=O)(c1cccc2cnccc12)N1CCCNCC1
Result: 98.1

Request: Tell me residual activity reported for Nc1ncnc2[nH]nc(Nc3ccc(F)cc3)c12
Result: 103

* * *

residual activity: recorded values
biological target: ABL1 (human) (UniProt P00519); assay: radiometric filter-binding kinase assay, Kinase HotSpot; conditions: compound 0.5 µM; ATP 10 µM
Sequence (P00519 whole entry, looked up): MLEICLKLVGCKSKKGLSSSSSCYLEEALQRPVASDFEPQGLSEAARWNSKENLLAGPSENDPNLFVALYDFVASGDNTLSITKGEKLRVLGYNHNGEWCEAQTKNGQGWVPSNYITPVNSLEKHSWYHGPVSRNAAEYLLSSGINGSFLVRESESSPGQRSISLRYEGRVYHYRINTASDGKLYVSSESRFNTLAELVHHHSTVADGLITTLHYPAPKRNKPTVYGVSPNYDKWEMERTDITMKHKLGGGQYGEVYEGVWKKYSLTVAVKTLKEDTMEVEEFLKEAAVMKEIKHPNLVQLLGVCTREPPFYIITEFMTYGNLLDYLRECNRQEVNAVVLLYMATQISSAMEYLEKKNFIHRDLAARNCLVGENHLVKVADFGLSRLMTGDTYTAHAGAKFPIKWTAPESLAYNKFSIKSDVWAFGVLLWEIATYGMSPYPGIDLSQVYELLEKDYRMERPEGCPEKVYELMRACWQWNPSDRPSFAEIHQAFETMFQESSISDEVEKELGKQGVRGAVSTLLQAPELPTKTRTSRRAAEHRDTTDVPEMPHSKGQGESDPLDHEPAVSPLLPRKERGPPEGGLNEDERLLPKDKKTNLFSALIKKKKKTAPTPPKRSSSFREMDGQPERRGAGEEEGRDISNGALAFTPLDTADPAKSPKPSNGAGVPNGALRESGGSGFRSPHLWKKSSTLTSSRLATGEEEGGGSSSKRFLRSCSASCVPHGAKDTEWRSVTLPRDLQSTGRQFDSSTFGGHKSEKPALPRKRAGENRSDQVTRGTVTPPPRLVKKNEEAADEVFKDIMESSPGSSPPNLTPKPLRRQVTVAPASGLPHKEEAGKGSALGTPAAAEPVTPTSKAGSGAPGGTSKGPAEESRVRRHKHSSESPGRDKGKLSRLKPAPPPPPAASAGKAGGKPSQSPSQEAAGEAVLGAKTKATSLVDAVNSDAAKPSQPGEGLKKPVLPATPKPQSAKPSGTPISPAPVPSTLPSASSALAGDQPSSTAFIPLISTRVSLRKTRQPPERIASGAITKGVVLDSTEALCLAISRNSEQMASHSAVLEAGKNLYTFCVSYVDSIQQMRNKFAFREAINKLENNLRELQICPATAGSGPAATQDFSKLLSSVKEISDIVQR
Numeric only. Scale: %

Recorded results for 5 compounds are shown here.
>>> recorded_number("CCC(=O)Nc1ccc2ncnc(Nc3cccc(Br)c3)c2c1")
98.9
>>> recorded_number("c1ccc(-c2n[nH]cc2-c2ccnc3ccccc23)nc1")
77.1
>>> recorded_number("O=C1NC(=O)c2c1c1c3ccccc3n3c1c1c2c2ccccc2n1C1CCC3O1")
72.7
>>> recorded_number("O=C1NC(=O)C(c2cn(CCCn3ccnc3)c3ccccc23)=C1Nc1ccccc1")
96.1
>>> recorded_number("CNc1cc2c(Nc3cccc(Br)c3)ncnc2cn1")
89.8

Next compound, please.
Request: Tell me residual activity reported for N#CC(C#N)=C(N)/C(C#N)=C/c1ccc(O)cc1
Result: 103

* * *

biological target: RPS6KA5 KD2 (human); assay: radiometric filter-binding kinase assay, Kinase HotSpot; settings: compound 0.5 µM; ATP 10 µM
PROPERTY MEASURED: residual activity (%)
Numeric only. Scale: %

Recorded results for 4 compounds are shown here.
>>> recorded_number("Nc1ncnc2[nH]nc(Nc3ccc(F)cc3)c12")
96.7
>>> recorded_number("O=C1Nc2ccc(Cl)cc2/C1=C/c1cc(Cl)c(O)c(Cl)c1")
86.1
>>> recorded_number("CCCC(=O)Oc1ccc2[nH]c(C(=O)c3cc4ccccc4[nH]3)cc2c1")
95.3
>>> recorded_number("Cc1ccc(S(=O)(=O)/C=C/C#N)cc1")
109

Request: Give residual activity for this entry on RPS6KA5 KD2 (human): CCOC(=O)c1c(C)[nH]c(/C=C2\C(=O)Nc3ccccc32)c1C
Result: 91.8

* * *

target: MAPKAPK5 (human) (UniProt Q8IW41); assay: radiometric filter-binding kinase assay, Kinase HotSpot; details: compound 0.5 µM; ATP 10 µM
Sequence (Q8IW41 whole entry, looked up): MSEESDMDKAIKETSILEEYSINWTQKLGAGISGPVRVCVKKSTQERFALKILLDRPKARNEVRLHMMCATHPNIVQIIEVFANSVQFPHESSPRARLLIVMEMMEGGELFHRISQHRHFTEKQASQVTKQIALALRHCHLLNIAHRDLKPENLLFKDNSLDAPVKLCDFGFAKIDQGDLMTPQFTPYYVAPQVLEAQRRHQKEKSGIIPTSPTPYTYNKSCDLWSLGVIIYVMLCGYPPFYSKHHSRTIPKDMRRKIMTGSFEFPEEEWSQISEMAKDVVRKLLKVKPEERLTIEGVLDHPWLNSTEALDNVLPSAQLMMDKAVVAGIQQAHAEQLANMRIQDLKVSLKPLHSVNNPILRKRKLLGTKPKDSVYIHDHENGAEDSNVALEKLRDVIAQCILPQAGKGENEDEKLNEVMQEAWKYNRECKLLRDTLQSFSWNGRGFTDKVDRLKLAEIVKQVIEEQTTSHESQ
residual activity: recorded values
Numeric only. Scale: %

Recorded results for 3 molecules are shown here.
>>> recorded_number("CC(=O)c1ccc(N2CCOCC2)cc1O")
96.9
>>> recorded_number("CCOC(=O)c1c(C)[nH]c(/C=C2\\C(=O)Nc3ccccc32)c1C")
93.9
>>> recorded_number("CNC(=O)c1cc(Oc2ccc(NC(=O)Nc3ccc(Cl)c(C(F)(F)F)c3)cc2)ccn1")
95.8

Request: Tell me residual activity reported for O=C1NC(=O)c2c1c1c3ccccc3n3c1c1c2c2ccccc2n1C1CCC3O1
Result: 80.4

Request: Tell me residual activity reported for CC[n+]1c(/C=C/N(C)c2ccccc2)n(-c2ccccc2)c2ccc(-c3nc4ccccc4s3)cc21
Result: 96.8

* * *

molecular target: IRAK1 (human); assay: radiometric filter-binding kinase assay, Kinase HotSpot; settings: compound 0.5 µM; ATP 10 µM
PROPERTY MEASURED: residual activity (%)
Numeric only. Scale: %

Recorded results for 3 compounds are shown here.
>>> recorded_number("CNC(=O)c1cc(Oc2ccc(NC(=O)Nc3ccc(Cl)c(C(F)(F)F)c3)cc2)ccn1")
101
>>> recorded_number("CC(=O)c1ccc(N2CCOCC2)cc1O")
111
>>> recorded_number("CC[n+]1c(/C=C/N(C)c2ccccc2)n(-c2ccccc2)c2ccc(-c3nc4ccccc4s3)cc21")
102

Request: Tell me residual activity reported for O=C(Nc1cccc(Nc2nccc(Nc3cccc(C(F)(F)F)c3)n2)c1)C1CC1
Result: 96.4

Request: Tell me residual activity reported for N#C/C(=C(/N)Sc1ccc(N)cc1)c1ccccc1C(F)(F)F
Result: 100

* * *

target: UniProtKB O00506; assay: radiometric filter-binding kinase assay, Kinase HotSpot; details: compound 0.5 µM; ATP 10 µM
Sequence (O00506 whole entry, looked up): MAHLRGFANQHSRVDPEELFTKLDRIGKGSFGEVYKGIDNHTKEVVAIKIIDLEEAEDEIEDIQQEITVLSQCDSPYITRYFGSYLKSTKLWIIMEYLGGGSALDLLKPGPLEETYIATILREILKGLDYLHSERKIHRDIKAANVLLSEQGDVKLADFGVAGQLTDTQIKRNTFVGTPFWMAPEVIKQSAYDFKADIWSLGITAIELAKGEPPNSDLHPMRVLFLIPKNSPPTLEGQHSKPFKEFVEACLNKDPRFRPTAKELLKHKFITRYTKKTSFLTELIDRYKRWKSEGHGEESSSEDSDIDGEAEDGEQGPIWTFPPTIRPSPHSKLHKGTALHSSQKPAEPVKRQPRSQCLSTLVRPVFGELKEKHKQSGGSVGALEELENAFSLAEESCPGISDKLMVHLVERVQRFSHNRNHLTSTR
residual activity: recorded values

Recorded results for 3 molecules are shown here.
>>> result("COc1ccc2c(c[n+](C)c3c4cc5c(cc4ccc23)OCO5)c1OC")
"98.8%"
>>> result("Cc1ccc(S(=O)(=O)/C=C/C#N)cc1")
"89.6%"
>>> result("CNc1cc2c(Nc3cccc(Br)c3)ncnc2cn1")
"102%"

Next molecule, please.
Request: Tell me residual activity reported for CO[C@H]1CC2CC[C@@H](C)[C@@](O)(O2)C(=O)C(=O)N2CCCC[C@H]2C(=O)OC([C@H](C)C[C@@H]2CC[C@@H](O)[C@H](OC)C2)CC(=O)[C@H](C)/C=C(\C)[C@@H](O)[C@@H](OC)C(=O)[C@H](C)C[C@H](C)/C=C/C=C/C=C/1C (some centres undefined)
Result: 129%

* * *

target: EGFR (human); test: radiometric filter-binding kinase assay, Kinase HotSpot; conditions: compound 0.5 µM; ATP 10 µM
Flag rule - residual activity less than 90% flags condition met; the remaining entries get condition not met.

Observe how each entry below is paired with its result.
>>> discrete_label("CCCC(=O)Oc1ccc2[nH]c(C(=O)c3cc4ccccc4[nH]3)cc2c1")
"condition not met"
>>> discrete_label("Cc1ccc(NC2=CC(=O)c3sc(C)nc3C2=O)cc1")
"condition not met"
>>> discrete_label("O=C1Nc2ccc(Cl)cc2/C1=C/c1cc(Cl)c(O)c(Cl)c1")
"condition not met"
>>> discrete_label("Nc1ncnc2[nH]nc(Nc3ccc(F)cc3)c12")
"condition not met"
>>> discrete_label("CCN(CC)CCNC(=O)c1c(C)[nH]c(/C=C2\\C(=O)Nc3ccc(Cl)cc32)c1C")
"condition not met"

Request: is_below(residual activity, 90%) for O=C1NC(=O)/C(=C/c2ccc3c(c2)OC(F)(F)O3)S1 ?
Result: condition met

Request: is_below(residual activity, 90%) for O=C1NC(=O)c2c1c1c3ccccc3n3c1c1c2c2ccccc2n1C1CCC3O1 ?
Result: condition met

* * *

molecular target: DAPK2 (human) (UniProt Q9UIK4); experiment: radiometric filter-binding kinase assay, Kinase HotSpot; settings: compound 0.5 µM; ATP 10 µM
Sequence (Q9UIK4 whole entry, looked up): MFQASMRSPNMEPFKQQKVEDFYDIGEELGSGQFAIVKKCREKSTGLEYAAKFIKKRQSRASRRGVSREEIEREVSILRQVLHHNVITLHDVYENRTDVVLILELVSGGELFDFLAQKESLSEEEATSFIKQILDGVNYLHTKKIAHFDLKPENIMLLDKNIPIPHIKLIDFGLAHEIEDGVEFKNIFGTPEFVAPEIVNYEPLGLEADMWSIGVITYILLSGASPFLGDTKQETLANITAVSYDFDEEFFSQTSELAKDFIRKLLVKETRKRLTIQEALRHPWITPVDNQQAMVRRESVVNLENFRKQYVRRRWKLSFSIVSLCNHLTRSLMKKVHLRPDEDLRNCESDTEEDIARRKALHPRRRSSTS
residual activity: recorded values
Numeric only. Scale: %

Recorded results for 2 compounds are shown here.
>>> recorded_number("Nc1ncnc2c1c(-c1ccc(Oc3ccccc3)cc1)cn2C1CCCC1")
87.6
>>> recorded_number("N#C/C(=C(/N)Sc1ccc(N)cc1)c1ccccc1C(F)(F)F")
112

Request: Tell me residual activity reported for N#CC(C#N)=C(N)/C(C#N)=C/c1ccc(O)cc1
Result: 95.7

* * *

target: PRKCH (human) (UniProt P24723); experiment: radiometric filter-binding kinase assay, Kinase HotSpot; settings: compound 0.5 µM; ATP 10 µM
Sequence (P24723 whole entry, looked up): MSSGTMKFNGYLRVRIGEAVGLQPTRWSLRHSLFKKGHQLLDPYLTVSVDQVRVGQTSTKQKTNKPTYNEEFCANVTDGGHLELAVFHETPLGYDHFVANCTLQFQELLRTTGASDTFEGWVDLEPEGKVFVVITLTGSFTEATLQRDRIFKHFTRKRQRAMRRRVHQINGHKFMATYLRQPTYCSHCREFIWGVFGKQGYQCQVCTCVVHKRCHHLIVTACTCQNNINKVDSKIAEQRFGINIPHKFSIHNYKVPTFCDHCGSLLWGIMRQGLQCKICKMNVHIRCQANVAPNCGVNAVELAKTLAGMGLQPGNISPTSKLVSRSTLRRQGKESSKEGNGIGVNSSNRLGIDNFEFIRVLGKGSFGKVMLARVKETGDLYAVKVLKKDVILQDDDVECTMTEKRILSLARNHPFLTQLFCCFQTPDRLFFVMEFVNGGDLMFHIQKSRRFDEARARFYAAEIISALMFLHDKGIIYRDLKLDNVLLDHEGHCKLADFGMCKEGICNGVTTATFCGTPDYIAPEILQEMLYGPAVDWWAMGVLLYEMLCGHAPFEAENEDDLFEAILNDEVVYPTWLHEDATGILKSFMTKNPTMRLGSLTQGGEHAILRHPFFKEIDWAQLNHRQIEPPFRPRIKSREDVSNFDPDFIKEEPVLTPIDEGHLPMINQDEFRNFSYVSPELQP
residual activity: recorded values
Numeric only. Scale: %

Recorded results for 3 molecules are shown here.
>>> recorded_number("CC#CC(=O)Nc1cc2c(Nc3ccc(F)c(Cl)c3)ncnc2cn1")
90.4
>>> recorded_number("Cc1nc(Nc2ncc(C(=O)Nc3c(C)cccc3Cl)s2)cc(N2CCN(CCO)CC2)n1")
106
>>> recorded_number("COc1ccc2c(c[n+](C)c3c4cc5c(cc4ccc23)OCO5)c1OC")
101

Request: Tell me residual activity reported for Cc1ccc(Nc2nccc(N(C)c3ccc4c(C)n(C)nc4c3)n2)cc1S(N)(=O)=O
Result: 110

Request: Tell me residual activity reported for O=C1NC(=O)/C(=C/c2ccc3c(c2)OC(F)(F)O3)S1
Result: 92.7

Request: Tell me residual activity reported for CC(C)N(CCC(=O)c1ccc2ccccc2c1)Cc1ccccc1
Result: 97.3

Request: Tell me residual activity reported for CCC(=O)Nc1ccc2ncnc(Nc3cccc(Br)c3)c2c1
Result: 89.3

Request: Tell me residual activity reported for CC[n+]1c(/C=C/N(C)c2ccccc2)n(-c2ccccc2)c2ccc(-c3nc4ccccc4s3)cc21
Result: 101

Request: Tell me residual activity reported for O=C1NC(=O)c2c1c1c3ccccc3n3c1c1c2c2ccccc2n1C1CCC3O1
Result: 47.6

Request: Tell me residual activity reported for O=S(=O)(c1cccc2cnccc12)N1CCCNCC1
Result: 84

Request: Tell me residual activity reported for COc1cc2ncnc(Nc3cccc(Cl)c3)c2cc1OC
Result: 104
